assayed_target: human ether-à-go-go-related gene (hERG) potassium channel (human)
protocol_text: primary screen, population patch clamp on CHO cells stably expressing hERG; higher = less effect of the substance
In all, about 310,000 compounds went through this assay and about 14,000 (4.5%) showed an effect of 50% or more. The effect is printed as a negative number. The entries come from a sample that favours strong results as a whole.
parameter: hERG current change (%, negative = inhibition) at 10uM (%)

                                   compound  measured
0  COc1ccc(CNC2CCCc3ccccc32)cc1OC.O=C(O)C(=O)O (stereo not drawn)     -25.3
1  O=C(c1ccccc1)N1N=C(c2ccc(F)cc2)CC1(O)C(F)(F)F (stereo not drawn)     -5.31
2  CCOc1ccc(CNC2CCCc3ccccc32)cc1.O=C(O)C(=O)O (stereo not drawn)     -68.1
3  CC(OC(=O)c1ccc(Br)c(S(=O)(=O)N2CCOCC2)c1)C(=O)NC1CCCCC1C (stereo not drawn)     -49.9
4  O=[N+]([O-])c1ccccc1CNC1CCCc2ccccc21 (stereo not drawn)     -5.95
5  COc1cc(CNC2CCCc3ccccc32)cc(OC)c1OC.O=C(O)C(=O)O (stereo not drawn)     -13.9
6  COc1ccc(-c2cc3nc(-c4ccccc4)cc(N4CCC(O)CC4)n3n2)cc1     -7.45
7  COc1ccc(S(=O)(=O)N2CCN(c3ccc4nnc(-c5ccccc5)n4n3)CC2)cc1     -66.4
8  COc1ccccc1NC(=O)c1sc2nc(-c3ccco3)ccc2c1N      1.24

###

assayed_target: human ether-à-go-go-related gene (hERG) potassium channel (human);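 note: peak tail current of the secondary pulse compared with the same well before compound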
protocol_text: primary screen, population patch clamp on CHO cells stably expressing hERG; higher = less effect of the substance
About 14,000 (4.5%) of roughly 310,000 compounds showed an effect of 50% or more. The effect is printed as a negative number. The full list was thinned out, with strong results kept by preference.
Record 1 whenever hERG current change (%, negative = inhibition) at 10uM is at -10% or higher; record 0 when lower.

In [3]: df
Out[3]:
                                   compound  qualitative_label
0   O=C(c1cccc(Cl)c1)N1CCN(C(=O)c2ccco2)CC1                  1
1  CC(C)Cc1ccc(CN2CCC(n3nccc3NC(=O)C3CCCC3)CC2)cc1                  0
2  COc1ccc(C(=O)Nc2cc(C(=O)O)cc(C(=O)O)c2)cc1Cl                  1
3  COc1ccc(C2(C)ON(c3ccccc3C(F)(F)F)C2=O)cc1 (stereo not shown)                  1
4  O=C(c1ccco1)N1CCN(C(=O)c2ccc(CS(=O)c3cccc(Cl)c3)o2)CC1 (stereo not shown)                  0
5  CN(C)CCNC(=O)CN1C(=O)CSc2ccc(S(=O)(=O)N3CCCCC3)cc21                  1
6       CCn1c(C2CCN(Cc3ccccc3)CC2)n[nH]c1=S                  0
7  CCOc1cccc(CN2CCC(n3nccc3NC(=O)C3CCCC3)CC2)c1                  0
8  Cc1ccc(NC(=O)N2CCN(C(=O)c3ccco3)CC2)cc1Cl                  1
9        Cc1ccc(S(=O)(=O)NNC(=O)c2csnn2)cc1                  1

###

assayed_target: human ether-à-go-go-related gene (hERG) potassium channel (human);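 note: peak tail current of the secondary pulse compared with the same well before compound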
protocol_text: primary screen, population patch clamp on CHO cells stably expressing hERG; higher = less effect of the substance
Hit rate of the full screen: of about 310,000 compounds, about 14,000 (4.5%) showed an effect of 50% or more. The effect is printed as a negative number. The list comes from a sample in which strong results are over-represented; it also holds close analogues and randomly drawn compounds.
Record Fulfilled whenever hERG current change (%, negative = inhibition) at 10uM is at 20% or higher; record Not fulfilled when lower.

>>> df
                                   compound  qualitative_label
0             O=C1CSC(=S)N1c1ccc(Cl)c(Cl)c1          Fulfilled
1  CC1(C)C(C=C(Cl)Cl)C1C(=O)Nc1ccc([N+](=O)[O-])cc1 (centres unmarked)      Not fulfilled
2  COc1ccc(OC)c(N2C(=O)NC(=O)C(CCc3ccncc3)(CCc3ccncc3)C2=O)c1      Not fulfilled
3  O=C1NC(=O)C(CCc2ccncc2)(CCc2ccncc2)C(=O)N1CCc1ccc(F)cc1      Not fulfilled
4  O=C(NC1CCCC1)C(c1cccs1)N(C(=O)c1ccco1)c1ccc2c(c1)OCO2 (centres unmarked)      Not fulfilled

###

assayed_target: human ether-à-go-go-related gene (hERG) potassium channel (human, UniProt Q12809);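 note: peak tail current of the secondary pulse compared with the same well before compound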
Sequence (Q12809 whole entry, looked up): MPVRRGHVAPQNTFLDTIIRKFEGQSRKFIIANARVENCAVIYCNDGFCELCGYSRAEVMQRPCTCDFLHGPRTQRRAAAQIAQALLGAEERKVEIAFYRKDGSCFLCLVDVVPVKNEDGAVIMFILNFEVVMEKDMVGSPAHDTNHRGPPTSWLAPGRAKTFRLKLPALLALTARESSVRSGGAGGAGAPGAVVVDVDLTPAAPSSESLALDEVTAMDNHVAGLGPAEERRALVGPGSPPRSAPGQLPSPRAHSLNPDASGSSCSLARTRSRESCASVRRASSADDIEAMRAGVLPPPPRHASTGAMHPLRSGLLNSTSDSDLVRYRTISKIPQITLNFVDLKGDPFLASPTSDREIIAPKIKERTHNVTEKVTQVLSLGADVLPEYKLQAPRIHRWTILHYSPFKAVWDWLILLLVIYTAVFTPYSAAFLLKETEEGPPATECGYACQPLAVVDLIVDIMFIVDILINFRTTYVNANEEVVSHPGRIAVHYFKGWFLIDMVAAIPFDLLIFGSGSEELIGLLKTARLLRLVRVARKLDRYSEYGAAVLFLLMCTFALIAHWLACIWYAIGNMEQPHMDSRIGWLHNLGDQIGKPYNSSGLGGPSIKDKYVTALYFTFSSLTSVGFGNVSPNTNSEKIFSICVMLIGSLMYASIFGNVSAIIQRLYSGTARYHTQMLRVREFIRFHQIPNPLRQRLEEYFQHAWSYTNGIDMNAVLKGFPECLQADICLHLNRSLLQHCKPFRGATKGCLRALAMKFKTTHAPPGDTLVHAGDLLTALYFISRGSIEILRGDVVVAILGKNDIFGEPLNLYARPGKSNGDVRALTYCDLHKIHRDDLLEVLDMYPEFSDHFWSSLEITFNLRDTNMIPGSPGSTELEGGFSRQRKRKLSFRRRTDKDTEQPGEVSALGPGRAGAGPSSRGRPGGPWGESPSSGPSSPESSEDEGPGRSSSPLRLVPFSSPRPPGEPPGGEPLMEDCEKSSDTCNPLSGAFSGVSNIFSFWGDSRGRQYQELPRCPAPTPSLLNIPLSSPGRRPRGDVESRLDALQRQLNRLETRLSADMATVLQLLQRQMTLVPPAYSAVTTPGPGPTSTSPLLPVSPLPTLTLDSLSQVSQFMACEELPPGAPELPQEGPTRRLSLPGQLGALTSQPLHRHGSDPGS
protocol_text: primary screen, population patch clamp on CHO cells stably expressing hERG; higher = less effect of the substance
Out of some 310,000 compounds screened, about 14,000 (4.5%) showed an effect of 50% or more. Effects have a minus sign here. The sample holds strong results, similar compounds and a random draw of the others, so the mix is not that of the screen.
Record Condition met whenever hERG current change (%, negative = inhibition) at 10uM is at -10% or higher; record Condition not met when lower.

>>> print(df.to_string())
                                    compound  qualitative_label
 0  Br.CCCc1nnc2n1N=C(c1ccc([N+](=O)[O-])cc1)CS2  Condition not met
 1               CCOc1ccc(C2=Nn3cnnc3SC2)cc1  Condition not met
 2  Cc1ccc(-c2nc3ccccn3c2NCc2ccc3c(c2)OCO3)cc1  Condition not met
 3            CCCn1c(NCc2ccc(C)o2)nc2ccccc21  Condition not met
 4  CCCCCCn1c(C(C)NC(=O)c2ccco2)nc2ccccc21 (stereo not shown)  Condition not met
 5                 CCn1c(-c2cccs2)nc2ccccc21  Condition not met
 6     CCN(CC)CCn1c(NCc2ccccn2)nc2ccccc21.Cl  Condition not met
 7  CC1CCC2(CC1)NC(=O)N(CC(=O)Nc1cccc(C#N)c1)C2=O (stereo not shown)      Condition met
 8  Br.CCc1nnc2n1N=C(c1cccc([N+](=O)[O-])c1)CS2  Condition not met
 9      O=[N+]([O-])c1ccc(C2=Nn3cnnc3SC2)cc1  Condition not met
10       O=[N+]([O-])c1ccc(-c2cnc(NO)nc2)cc1  Condition not met
11  CCc1nnc2n1N=C(c1ccc([N+](=O)[O-])cc1)CS2  Condition not met
12  Oc1ccc(-c2nc3ccccn3c2NCc2ccc3c(c2)OCO3)cc1  Condition not met
13               C=CCn1c(-c2cccs2)nc2ccccc21      Condition met
14  CCCCCn1c(C(C)NC(=O)CCC)nc2ccccc21 (stereo not shown)  Condition not met
15  O=S(=O)(N/N=C/c1ccc(N2CCOCC2)cc1)c1ccc(Br)cc1      Condition met
16  c1ccc(-c2nc3ccccn3c2NCc2ccc3c(c2)OCO3)cc1  Condition not met
17  Cc1ccn2c(NCc3ccc4c(c3)OCO4)c(-c3ccc(O)cc3)nc2c1  Condition not met
18  COc1ccc(-c2nc3cc(C)ccn3c2NCc2ccc3c(c2)OCO3)cc1  Condition not met
19  O=C(Nc1sc2c(c1C(=O)N1CCOCC1)CCCCC2)c1cccnc1      Condition met

###

assayed_target: human ether-à-go-go-related gene (hERG) potassium channel (human);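 note: peak tail current of the secondary pulse compared with the same well before compound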
protocol_text: primary screen, population patch clamp on CHO cells stably expressing hERG; higher = less effect of the substance
Screen size: about 310,000 compounds; about 14,000 (4.5%) showed an effect of 50% or more. The effect is printed as a negative number. Many of the other results were omitted from the sample, so strong results are more common in it than they were.
This section presents compounds with their documented hERG current change (%, negative = inhibition) at 10uM values.
parameter: hERG current change (%, negative = inhibition) at 10uM (%)

>>> df
                                   compound  measured
0  CCOC(=O)N1CCC(N2C(=O)c3ccccc3C2Nc2cc(Cl)c(OC)cc2OC)CC1 (stereo not drawn)     -45.5
1              Cc1nn(CC#N)c(=O)n1-c1ccccc1F      10.8
2  CCOC(=O)N1CCC(N2C(=O)c3ccccc3C2Nc2ccc(S(=O)(=O)N3CCOCC3)cc2)CC1 (stereo not drawn)     -16.7
3  CCOC(=O)N1CCC(N2C(=O)c3ccccc3C2Nc2ccc(C)cc2)CC1 (stereo not drawn)     -32.8
4  CCN(CC)CCN(Cc1cc2cccc(C)c2[nH]c1=O)C(=S)Nc1ccccc1     -66.2
5  CCOC(=O)N1CCC(N2C(=O)c3ccccc3C2Nc2ccc(S(=O)(=O)N(CC)CC)cc2)CC1 (stereo not drawn)     -62.6
6  Cn1c(=O)c2c(ncn2CC(=O)Nc2ccc3c(c2)OCO3)n(C)c1=O      3.43
7  CCN(CC)CCN(Cc1cc2cc(C)ccc2[nH]c1=O)C(=S)Nc1ccccc1     -50.6
8  CCOC(=O)N1CCC(N2C(=O)c3ccccc3C2Nc2cccnc2)CC1 (stereo not drawn)      1.81
